// data source = ChEMBL document CHEMBL2169741

Measured inhibition, listed per entry.
Biological target: Pancreatic lipase-related protein 2 (Homo sapiens)
Sequence (whole entry): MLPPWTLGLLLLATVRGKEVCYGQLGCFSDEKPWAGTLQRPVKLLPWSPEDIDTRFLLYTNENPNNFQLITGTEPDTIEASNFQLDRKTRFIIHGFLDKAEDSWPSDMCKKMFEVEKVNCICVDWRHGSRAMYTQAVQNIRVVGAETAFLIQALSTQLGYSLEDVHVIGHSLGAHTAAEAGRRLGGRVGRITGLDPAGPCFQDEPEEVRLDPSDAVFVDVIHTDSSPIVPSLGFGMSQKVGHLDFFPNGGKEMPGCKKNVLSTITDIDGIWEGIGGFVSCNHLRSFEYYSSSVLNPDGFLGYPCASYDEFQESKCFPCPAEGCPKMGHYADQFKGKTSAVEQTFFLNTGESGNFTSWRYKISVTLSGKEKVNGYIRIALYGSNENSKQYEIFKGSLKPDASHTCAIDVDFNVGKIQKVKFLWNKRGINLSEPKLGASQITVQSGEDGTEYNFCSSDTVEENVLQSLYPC
Assay: Inhibition of recombinant HPLRP2 expressed in Pichia pastoris at 20 molar excess after 30 mins in presence of NaTDC

>  <SMILES_INPUT>
CCCCCCCCCCC[C@@H](C[C@@H]1OC(=O)[C@H]1CCCCCC)OC(=O)[C@H](CC(C)C)NC=O

>  <inhibition>
86.3%

$$$$
>  <SMILES_INPUT>
COc1nn(-c2ccccc2)c(=O)o1

>  <inhibition>
92.7%

$$$$
>  <SMILES_INPUT>
COc1nn(-c2ccc(Oc3ccccc3)cc2)c(=O)o1

>  <inhibition>
88.8%

$$$$
>  <SMILES_INPUT>
COc1nn(-c2cccc(Oc3ccccc3)c2)c(=O)o1

>  <inhibition>
81.2%

$$$$
